# Procedure Summary: In vivo biodistribution of [^203Pb]VMT01 in B16-F10 melanoma xenograft model
# Set-up: species or system athymic nude mice
# Measurement Parameters: both sexes, athymic nude, mouse, skin, intravenous, 74 KBq, total radioactivity, 6 h post-injection, tail vein, read-out: Biodistribution, Skin, Average
Where a SMILES comes first, the peptide text is derived from it. Bridges are numbered along the chain shown (N, C = ends). Triazole bridges read from a SMILES are 1,4-linked. Side-chain parts run from the residue outwards. [ ]: non-standard residue; d: D form. The star is where a group is joined. X1 = NC(=O)CN1CCN(CC(=O)O)CCN(CC(=O)*)CCN(CC(=O)O)CC1; Lys(N3) = [N-]=[N+]=NCCCC[C@H](N)C(=O)O; Nle = CCCC[C@H](N)C(=O)O; Pra = C#CC[C@H](N)C(=O)O; AEEA = NCCOCCOCC(=O)O
Parameter: tissue uptake at 6 h (%ID/g)
Dear colleague, please return just the value in %ID/g, with no unit written.

Task item: What tissue uptake at 6 h value was documented for this compound, CCCC[C@H](NC(C)=O)C(=O)N[C@H]1Cc2cn(nn2)CCCC[C@@H](C(=O)N[C@@H](CCCCNC(=O)COCCOCCNC(=O)CN2CCN(CC(=O)O)CCN(CC(N)=O)CCN(CC(=O)O)CC2)C(N)=O)NC(=O)[C@H](Cc2c[nH]c3ccccc23)NC(=O)[C@H](CCCNC(=N)N)NC(=O)[C@@H](Cc2ccccc2)NC(=O)[C@H](Cc2c[nH]cn2)NC1=O [[^203Pb]VMT01, metal not drawn] (Ac-[Nle][Pra]H[dF]RW[Lys(N3)]K([AEEA-X1])-NH2; triazole 2-7) ?
Reply: 0.17
